- assayedTarget: -L1 protein (recombinant) (UniProt Q9H0R8 1-117)
- Sequence (Q9H0R8 whole entry): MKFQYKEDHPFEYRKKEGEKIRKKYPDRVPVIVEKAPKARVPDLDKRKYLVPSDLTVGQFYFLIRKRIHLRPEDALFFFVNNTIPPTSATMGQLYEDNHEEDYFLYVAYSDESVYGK
- assaySummary: ITC
Non-standard residues stand in square brackets, D forms with d. No end group written: not given here. pS = N[C@@H](COP(=O)(O)O)C(=O)O
outcomeMeasure: Kd (µM)
Please state the figure in µM; there is no need to write the unit.

Problem: Name the recorded Kd for EALN[pS]GVEYYWDQLNET [AMBRA1-LIR peptide, S1014 phosphorylated (P1)] .
Result: 25

Ref: paper PMC6138665
